Below: a set of entries, each annotated with reported Residual Enzyme Activity.
- TEST: Stability assay: residual activity after incubation with 1 mM inhibitor, measured by pNA assay
- Assay type: physicochemical
- Parameters: key: fraction of activity at 0 h incubation (0.80 = 80%)
- TEST CONTEXT: incubation time 3.1 hours; 1 mM Cu2+; 25° C., pH 7, 0.1% K-sorbate; relative to 0 hours

>  <MOLECULE>
Brachysporiella protease: protease from Brachysporiella gayana CGMCC 0865, amino acids 1-186 of SEQ ID NO: 14 (protein, listed as Brachysporiella gayana) MELTSLIAALAVILPIAYGVPMDATTNLSPKVLAAMKRDLGLDAREATARVTFERRAGDVIEELRSSLGDSFAGAWVTDGKVINIGVTDQALVSKVKEAGAEPMVMKNSLGKLQEAKKKLDQIIKEKPKTLSTSGKPGIATYYVDIETNKLIITALSTSITQAEDLAKEVGLSESEFEVRKTEKMP

>  <Residual Enzyme Activity>
1.022

$$$$
>  <MOLECULE>
Protease 08: protease from Nocardiopsis alba DSM 15647, amino acids 1-188 of SEQ ID NO: 10 (protein, listed as Nocardiopsis alba) ATGPLPQSPTPDEAEATTMVEALQRDLGLSPSQADELLEAQAESFEIDEAATAAAADSYGGSIFDTDSLTLTVLVTDASAVEAVEAAGAEAKVVSHGMEGLEEIVADLNAADAQPGVVGWYPDIHSDTVVLEVLEGSGADVDSLLADAGVDTADVKVESTTEQPELYADIIGGLAYTMGGRCSVGFAA

>  <Residual Enzyme Activity>
0.936

$$$$
>  <MOLECULE>
Protease 10: known protease derived from Nocardiopsis sp. NRRL 18262, amino acids 1-188 of SEQ ID NO: 2 (protein) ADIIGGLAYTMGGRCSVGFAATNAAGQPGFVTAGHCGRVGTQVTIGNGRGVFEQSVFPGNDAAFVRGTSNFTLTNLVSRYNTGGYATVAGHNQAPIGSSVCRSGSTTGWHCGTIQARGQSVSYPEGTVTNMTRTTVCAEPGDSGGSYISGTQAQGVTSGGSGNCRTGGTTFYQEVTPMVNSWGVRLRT

>  <Residual Enzyme Activity>
0.952

$$$$
>  <MOLECULE>
Metarhizium protease: known protease derived from Metarhizium anisopliae, amino acids 1-188 of SEQ ID NO: 4 (protein, listed as Metarhizium anisopliae) MELTKFLALLAVILPVAYGAPTQAASLHPQILEAMKRDLGLNAEQATVRVAREIHATDVIEQLRSSVAFAGAWIDADVLYIGITDQALADEVTAAGATPIVMTNSLSKLEKAKEDLDKIFIGRANTLETSSDTSSGIASYFVDVAANKLVIEALADSHGHAEQLAAQVGLTSEFEVRTVETMPTTMAT

>  <Residual Enzyme Activity>
0.979

$$$$
>  <MOLECULE>
Protease 18: protease from Nocardiopsis dassonvillei subsp. dassonvillei DSM 43235, amino acids 1-188 of SEQ ID NO: 12 (protein, Nocardiopsis dassonvillei subspecies dassonvillei) APAPVPQTPVADDSAASMTEALKRDLDLTSAEAEELLSAQEAAIETDAEATEAAGEAYGGSLFDTETLELTVLVTDASAVEAVEATGAQATVVSHGTEGLTEVVEDLNGAEVPESVLGWYPDVESDTVVVEVLEGSDADVAALLADAGVDSSSVRVEEAEEAPQVYADIIGGLAYYMGGRCSVGFAAT

>  <Residual Enzyme Activity>
0.985

$$$$
>  <MOLECULE>
Protease 11: protease from Nocardiopsis prasina DSM 15648, amino acids 1-188 of SEQ ID NO: 6 (protein, listed as Nocardiopsis prasina) ATGPLPQSPTPEADAVSMQEALQRDLGLTPLEADELLAAQDTAFEVDEAAAAAAGDAYGGSVFDTETLELTVLVTDAASVEAVEATGAGTELVSYGIEGLDEIIQDLNAADAVPGVVGWYPDVAGDTVVLEVLEGSGADVSGLLADAGVDASAVEVTSSAQPELYADIIGGLAYTMGGRCSVGFAATN

>  <Residual Enzyme Activity>
0.930

$$$$
>  <MOLECULE>
Protease 35: protease from Nocardiopsis prasina DSM 15649, amino acids 1-188 of SEQ ID NO: 8 (protein, listed as Nocardiopsis prasina) ATGPLPQSPTPEADAVSMQEALQRDLGLTPLEADELLAAQDTAFEVDEAAAEAAGDAYGGSVFDTETLELTVLVTDSAAVEAVEATGAGTELVSYGITGLDEIVEELNAADAVPGVVGWYPDVAGDTVVLEVLEGSGADVGGLLADAGVDASAVEVTTTEQPELYADIIGGLAYTMGGRCSVGFAATN

>  <Residual Enzyme Activity>
0.960

$$$$
